Test system: MCF-7
measurement-description: MTT cytotoxicity assay, MCF-7
Type: cell-based, human
condition-notes: Homo sapiens, MCF7, MCF-7, 72 h
experimental-endpoint: IC50

Name the reported IC50 value associated with the compound COc1cc(C)cc2c(=O)oc3c(c12)C(=O)c1cccc(O)c1C3=O [Compound 2, WS-5995A]
> 50 µM

Name the reported IC50 value associated with the compound COC(=O)c1cc(C)cc(OC)c1C1=C(O)C(=O)c2c(O)cccc2C1=O [Compound 5, WS-5995D]
> 50 µM

Name the reported IC50 value associated with the compound COc1cc(C)cc(C(=O)O)c1C1=C(O)C(=O)c2c(O)cccc2C1=O [Compound 4, WS-5995C]
> 50 µM

Name the reported IC50 value associated with the compound CCOC(=O)c1cc(C)cc(OC)c1C1=C(O)C(=O)c2c(O)cccc2C1=O [Compound 1, WS-5995 E]
> 50 µM

Name the reported IC50 value associated with the compound COc1cc(C)cc(C(=O)O)c1C1=CC(=O)c2c(O)cccc2C1=O [Compound 3, WS-5995B]
19.6 µM

Name the reported IC50 value associated with the compound COc1cccc2c1C(=O)c1c(O)c3c(c(O)c1C2=O)C[C@@](O)(C(=O)CO)C[C@@H]3O[C@H]1C[C@H](N)[C@H](O)[C@H](C)O1 [Adriamycin, reference compound]
2.96 µM
